These data points were gathered from paper PMC12616683.

# Experiment summary: FBMN analysis of short peptides in small intestine contents and serum after oral DHG
# Condition set: small intestine contents, 60 min after oral DHG, C57 mice; FBMN feature intensity, peptides smaller than 690 Da
Peptide text beside a SMILES is read from it.
Observation type: Peptide signal (feature intensity) in the small intestine, 60 min
I'd appreciate a reply containing only the number, no unit.

| Molecule | Assay value |
| --- | --- |
| CSCC[C@H](NC(=O)[C@@H](N)C(C)C)C(=O)O [Val-Met] (H-Val-Met-OH) | 7.38E+06 |
| CC(C)CC(NC(=O)C1CCCN1)C(=O)O (stereo not drawn) [Pro-Leu] (H-Pro-Leu-OH; configuration not given here) | 1.43E+07 |

If you can, please state the reported Peptide signal (feature intensity) in the small intestine, 60 min value of CC[C@H](C)[C@H](N)C(=O)N[C@@H](CC(C)C)C(=O)O [Ile-Leu] (H-Ile-Leu-OH) .
3.36E+06

Likewise for "N[C@@H](CO)C(=O)N[C@@H](Cc1ccccc1)C(=O)O" ?
1.38E+06
